# Assay Notes: yeast display, Sf9 membrane polyspecificity reagent, FACS + sequencing; frameworks hold sequencing errors
Metric: polyreactivity (PSR sort gate)

Example results:
| Sequence Chain | polyreactivity (PSR sort gate) |
| --- | --- |
| QVQLVESGGGLVQAGGSLRLSCAASGIIIHSYTMGWYRPAPGKERELVAAISTSGSTYYADSVKGRFTISRDNAKNTVYLQMHILKPEDTAVYYCNADYAQSGTNSQVGKYGYWGQGTQVTVSS | high polyreactivity |
| QVQLVESGGRLVQAGGSLRLSCAASGFTFARYAMGWYRQAPGKERELVARISSDGGGTDYADSVKGRFTISRDNAKNTVYLQMNSLKPEDTAVYYCYADPYSRFWGPDYGYWGQGTQVTVSS | low polyreactivity |
| QVQLVESGGGLVQAGGSLRLSCAASGFTFDYYAMGWYRQAPGKDRELVAAITSGSITYYADSVKGRFTISRDNAKNTVYLQMNSLKPEDTAVYYCARYGYRRVGSRWAEFDYWGQGTQVTVSS | high polyreactivity |
| QVQLVESGGGLVQAGGSLRLSCAASGFTFGYYAMGWYRQAPGKERELVAAISSSGGRTYYADSVKGRFTISRDNAKNTVYLQMNSMKPEDTAVYYCAAVYIRYPIQYSLLRYDYWGQGTQVTVSA | high polyreactivity |
| QVQLVESGGGLDQAGGSLRLSCAASGRIFVYNAMGWSRQAPGKARELVATITFSSSNTYYADSVKGRFTISRENAKNTVYLQMNSLKPEDTAVYYCYRDYVYARDYGNFDYWGQGTQVTVSS | low polyreactivity |

Enquiry: Fill blank: measured polyreactivity (PSR sort gate) of the sequence `QVQLLETGGGLVQAGGSLRLSCAASGLIFYYNVMGWYIQAPGKERELVASISYSSTRTYYADSVKGRFTISRDNAKNTVYLQMNSLKPEDTAVYYCNAVIRNSWIRGYWGQGTQVTVSS` is ____.
Return: low polyreactivity

Enquiry: Fill blank: measured polyreactivity (PSR sort gate) of the sequence `QVQLVESGGGLVQAGGSLRLSCAASGFIFIQNDMGWYRQAPGKERAFFASISKDGGRTYYADSVKGRFTISRDNAKNTVYLQMNSLKPEDTAVYYCNTYPRGNWGNFVEQDYDYWGQGTQVTVSS` is ____.
Return: low polyreactivity

Enquiry: Fill blank: measured polyreactivity (PSR sort gate) of the sequence `QFQLVESGGGLVQAGGSLRLSCAASGLTFSRYAMGWYIQAPGKERELVAAITCSGSSTYYSHSVKGRFTISRDNAKNNVYLQMNSLKPEDTAVYYCAARYGYSRGTYYRSDYWGQGTQVTVSS` is ____.
Return: high polyreactivity

====

# Assay Notes: yeast display, Sf9 membrane polyspecificity reagent, FACS + sequencing; frameworks hold sequencing errors
Metric: polyreactivity (PSR sort gate)

| Sequence Chain | Data Value |
| --- | --- |
| QVQLVESGGGLVQAGGSLRLSCAASGRTFRYNAMGWYRPAPGKERELVAAITKSGGTTYYADSVKGRFTISRDNAKNTVYLQMNSLKPEDTAVYYCNAYRVVHPWEYDYWGQGTQVTVSS | high polyreactivity |
| QVQLVESGGGLVQAGGSLRLSCAASGFTFLGNAMGWYRQAPGKERELVATITSGGNTKYADSVKGRFTISRDNAKNTVYFQINSLKPEDTAVYYFARDRKRQADDICEFDYWGQGSQVTVSS | low polyreactivity |
| QVQLQEGGGGQVQAGGSLRLSCAASGYITNGDVMGWSRQAPGEERELVASSGLDATTNYADSVKGRFTISRDNAKMTVYLQMNSLKPEDTAVYYCAADVGSGVLCGYWGQGTQMTVSS | high polyreactivity |
| QVQLVESGGGLVQAGGSLRLSCAASGSIFDSNTMGWYRQAPGKERELVAAITGTGTSTYYADSVKGRFTISRDNAKNTVYLQMNSLKPEDTAVYYCAADLEYKTWWYDYWGQGTQVTVSS | low polyreactivity |

# input for lookup
Enquiry: Fill blank: measured polyreactivity (PSR sort gate) of the sequence `QVQLVESGVGLVQAGGSLRLSCAATGRIFDLYAMGWYRQAPGKEREFVAAISGRGGSTYYADSVKGRFTISRDNAKNTVYLEMNSLKPEDTAVYYCNAKRSLYGRYGYWGQGSQVTVSS` is ____.
Return: high polyreactivity

====

# Assay Notes: yeast display, Sf9 membrane polyspecificity reagent, FACS + sequencing; frameworks hold sequencing errors
Metric: polyreactivity (PSR sort gate)

| Sequence Chain | polyreactivity (PSR sort gate) |
| --- | --- |
| KVQLVESGGGLVQAGGSLRITCAASGSNQASNAMGWYRQAPGKERELVAAIRVSGASTYYADSVKGRFTISRDNAKNTVYLQMKSLKPEYNAVYYCAADYQFGVIYYYWGQGTQVTLSS | low polyreactivity |
| QVQLLESGGGLFQAGGSLRLSCAASGRIFDPYAMGWYRKAPWKETELVAAISWRGGSTNYADSVKGRFTISRDNAKNTVYLQMNSLKPEDTAVYYCAAVPVRYRYSYGYYYWGQGTQVTVSS | high polyreactivity |
| QVQLVESGGGLVQAGGSLRLSCAASGITFFGYAMGWYRQAPGKERELVAAISTRGGSTYYADSVKGRFTISRDNAKNTVYLQMNSLKPEDTAFYYCNKEYYHKWAPTYDYWGQGTQVTVSS | low polyreactivity |
| QVQLVESGGGLVQAGGSLRLSCAASGRTFDYYAMGWYRPAPGKERELVAAIRTSGGSTNYADSVKGRFTISRDNAQNTVYLLMNSLKPEDTAVYYCAARDRPGAYYYGGQGTQVTVSS | high polyreactivity |
| QVQLVESCGGLVQAGGSLRLSCPASGSIFHVNVMGCYRQEPGKERELVAAITYSGGATYYADSVKGRFTISRDNAKNTVYLQMNSLKPEDTAVYYCAAYPYWFFPHYDSWGQGTLVTVSS | low polyreactivity |
| QVQLVESGGGLVQAGGSLRLSCAASGFTFSYYAMGWYRQAPGKERELVASISRSGNTYYADSVKGRFTISRDNAKNTVYLQMNSLKPEDTAVYYCAAKRKSYYSYNFDYWGQGTQVTVSS | high polyreactivity |
| QVQLVESGGGLVQAGGSLRLSCAASGSIFLGYAMGWYRQAPGKERELVAAISWTGGSTYYADSVKGRFTISRDNAKNTVYLQMNSLTPEDTAVYYCAAEDQYGFDYWGQGTQVTVYS | high polyreactivity |
| QVQLVETGGGLVQAGGSLRLSCAASGITFFRNAMGWYRQAPGKERELVAAISRGGGSTYYADSVKGRFTISRDNAKKTVYLQMNSLKPEDTAVYYCAEYKYGTGVKMDYWGQGTQVTVSS | high polyreactivity |

Enquiry: Fill blank: measured polyreactivity (PSR sort gate) of the sequence `QVQLVESGGGLVQAGGSLRLSCAASGRIFIANTMGWYRQAPGKERELVAAITQRGDSTYYADSVKGRFTISRDNAKNTVYLQMNSLKPVDTAVYYCAARSFRKYYIRYDYWGQGTQVTVSS` is ____.
Return: high polyreactivity

Enquiry: Fill blank: measured polyreactivity (PSR sort gate) of the sequence `QVQLVESGGGLVQAGGSLRLSCAASGLIFWYYAMGWYRQAPGKERELVAAINKIGGSTYYADSVKGRFTISRDNAKNTVYLQMNSLKPEDTAVYYCAADAPYYPVRRYYYWGQGTQVTVSS` is ____.
Return: low polyreactivity

Enquiry: Fill blank: measured polyreactivity (PSR sort gate) of the sequence `QVQLVESGGGLVQAGGSLRLSCAASGGTFGSYTMGWYRQAPGKERELVAAISSGGGTDYADSVKGRFTISRDNAKNTVYLQMNSLIPEDTAVYYCYAKSYYAWGSVRYPQTFDYWGQGTQVTVSS` is ____.
Return: low polyreactivity

Enquiry: Fill blank: measured polyreactivity (PSR sort gate) of the sequence `QVQLVESAAGLVQAVGSLRLSCAPSGITFYDYTMGWYRQAPGKERELVAAITSSGVSTYYADSVKGRFTISRDNAKNTVYLQMNSLKPEDTAVYYCATDAWSVYSYLAFTYDYWGQGTQVTVSS` is ____.
Return: low polyreactivity

Enquiry: Fill blank: measured polyreactivity (PSR sort gate) of the sequence `QVQLVESGGGLVQAGGSLRLSCAASGTFTVNTMGWYRQAPGKVSELVAAISTGDTTTYADSVKGRFTISRDNAKNTVYFQLNSLKPEDTAVYYCNVDIGVYAYESDYWGQGTQVTVSS` is ____.
Return: low polyreactivity

Enquiry: Fill blank: measured polyreactivity (PSR sort gate) of the sequence `QVQLVESGGGLVQAGGSLRLSCAASGIIFEYYAMGWYRQAPGKERELVAAITWNGGRTYYADSVKGRFTISRDNAKNTVYLQMNSLKPEDTAVYYCAARKPRSGGPFDYWGQGTQVTVSS` is ____.
Return: high polyreactivity

====

# Assay Notes: yeast display, Sf9 membrane polyspecificity reagent, FACS + sequencing; frameworks hold sequencing errors
Metric: polyreactivity (PSR sort gate)

Example results:
| Sequence Chain | Data Value |
| --- | --- |
| QVHLVESGGGLVQAGGSLRLSCAASGSIFYTNAMGWYSQAPGKERELVAAISYSGGRTYYADSVKGRFTISRDNAKNTVYIQMNSLKPEDTAVFYCNTVLRGGSTEAFDYWGQGTKVTVSS | high polyreactivity |
| QVQLVETGGGLLQAGGSLRISSAASGRIFPSFSMGWYRQAPGKERELVAAITRGGASTYYADSVKGRFTISRDNAKNTVYLQMNSLKPEDTAVYYCAKDAYRYGGLSWTTGMDYWGQGTQVTVSS | high polyreactivity |
| QFQLVESGGGLVQAGGTLRLSCAPSGFTFTLNPLGWYRQAPGKERQLVATIDWSGTSTYYADSVKGRFRISRDKAKNTFYLQMNCMKPVDTAVYYCARVYQGYPGFYDGEYWGQGNQVTVSS | low polyreactivity |
| QVQLVESGGGLVQAGGSLRLSCAASGRIFGGNAMGWYRQAPGKERQLVAAISKRGGSTYYADSVKGRFTISRDNAKNTVYLQMNSLKPEDTAVYYCAATPYSDQGLDYGYWGQGTQVTVSS | high polyreactivity |

# input for lookup
Enquiry: Fill blank: measured polyreactivity (PSR sort gate) of the sequence `QVQLVESGGGLVQAGGSLRLSCAASGSIFSKNAMGWYRQAPGKERELVAAITGGGSTYYADSVKGRFTISRDNAKNTVYLQMNSLKPEDTAVYYCAAEFYVWGQGTQVTVSS` is ____.
Return: low polyreactivity
